pIC50: −log10 of the molar value.
Let's go through some recorded pIC50 values for Mast/stem cell growth factor receptor Kit (Homo sapiens, UniProt P10721) together.
value-type: pIC50

> print(dat)
                         structure.notation  value.type  reported
1  O=C(Nc1cccc(-c2cncc3ccccc23)c1)c1ccccc1NCc1ccncc1       pIC50      6.98
2  O=C(Nc1cccc(C(F)(F)F)c1)c1ccccc1NCc1ccncc1       pIC50      6.63

----------
# target-or-system: Platelet-derived growth factor receptor beta (Homo sapiens)
# Sequence (P09619 whole entry): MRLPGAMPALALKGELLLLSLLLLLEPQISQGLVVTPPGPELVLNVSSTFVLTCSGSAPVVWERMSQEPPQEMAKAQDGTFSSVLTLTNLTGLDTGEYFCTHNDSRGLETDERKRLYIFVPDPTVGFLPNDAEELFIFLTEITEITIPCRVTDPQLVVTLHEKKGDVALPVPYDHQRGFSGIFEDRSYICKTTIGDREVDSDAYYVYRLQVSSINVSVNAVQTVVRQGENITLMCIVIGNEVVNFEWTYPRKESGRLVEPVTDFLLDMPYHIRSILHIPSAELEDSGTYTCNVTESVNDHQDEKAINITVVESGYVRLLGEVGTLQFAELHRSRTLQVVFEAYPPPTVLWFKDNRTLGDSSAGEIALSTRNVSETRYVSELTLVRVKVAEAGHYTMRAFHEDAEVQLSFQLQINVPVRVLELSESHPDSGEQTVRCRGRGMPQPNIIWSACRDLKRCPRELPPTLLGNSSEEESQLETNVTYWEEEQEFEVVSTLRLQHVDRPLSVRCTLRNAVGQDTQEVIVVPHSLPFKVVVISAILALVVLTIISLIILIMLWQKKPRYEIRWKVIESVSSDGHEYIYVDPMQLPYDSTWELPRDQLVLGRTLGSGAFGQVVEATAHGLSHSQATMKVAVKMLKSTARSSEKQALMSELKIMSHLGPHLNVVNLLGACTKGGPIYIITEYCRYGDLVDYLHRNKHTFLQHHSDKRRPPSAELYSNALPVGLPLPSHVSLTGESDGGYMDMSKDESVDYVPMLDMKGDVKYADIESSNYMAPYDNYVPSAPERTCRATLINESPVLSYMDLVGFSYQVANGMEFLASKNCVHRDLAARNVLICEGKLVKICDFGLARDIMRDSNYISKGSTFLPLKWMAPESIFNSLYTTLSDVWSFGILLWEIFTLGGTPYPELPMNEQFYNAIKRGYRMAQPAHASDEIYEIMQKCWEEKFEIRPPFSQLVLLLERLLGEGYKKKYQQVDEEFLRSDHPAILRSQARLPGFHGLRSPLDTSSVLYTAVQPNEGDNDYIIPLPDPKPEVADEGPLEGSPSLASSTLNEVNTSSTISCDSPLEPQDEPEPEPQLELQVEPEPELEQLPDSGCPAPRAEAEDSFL
value-type: IC50 (nM)

> print(dat)
                         structure.notation  units.of.measure  reported
1  O=C(Nc1cccc(-c2cncc3ccccc23)c1)c1ccccc1NCc1ccncc1                nM       357
